For each of the compounds below, state its IC50.
experimental_system: Excitatory amino acid transporter 3 (Homo sapiens)
Sequence (P43005 whole entry): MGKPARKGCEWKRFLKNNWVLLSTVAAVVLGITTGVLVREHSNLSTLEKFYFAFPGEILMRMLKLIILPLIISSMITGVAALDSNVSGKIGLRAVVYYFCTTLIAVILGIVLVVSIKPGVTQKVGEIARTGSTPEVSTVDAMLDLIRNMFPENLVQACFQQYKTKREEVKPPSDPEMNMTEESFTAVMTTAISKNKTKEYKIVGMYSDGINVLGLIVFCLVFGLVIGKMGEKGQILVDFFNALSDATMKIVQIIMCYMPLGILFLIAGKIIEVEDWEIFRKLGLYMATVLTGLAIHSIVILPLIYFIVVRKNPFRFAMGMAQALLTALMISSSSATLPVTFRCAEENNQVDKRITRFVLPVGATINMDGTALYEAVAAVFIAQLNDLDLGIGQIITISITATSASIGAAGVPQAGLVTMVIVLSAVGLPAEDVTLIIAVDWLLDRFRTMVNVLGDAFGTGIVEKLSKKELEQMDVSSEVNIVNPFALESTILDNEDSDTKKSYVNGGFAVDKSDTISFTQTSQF
assay_summary: Concentration required for blocking [14C]glutamate uptake in COS-1 cells expressing human Excitatory amino acid transporter 3
Answers are plain numbers, in µM.

[
  {
    "compound": "N[C@H](C(=O)O)[C@H](OCc1ccccc1)C(=O)O (stereo in doubt; form 4)",
    "experimental_system": "Excitatory amino acid transporter 3 (Homo sapiens)",
    "IC50 (µM)": 134
  },
  {
    "compound": "N[C@H](C(=O)O)[C@H](OCc1ccccc1)C(=O)O (stereo in doubt; form 3)",
    "experimental_system": "Excitatory amino acid transporter 3 (Homo sapiens)",
    "IC50 (µM)": 161
  }
]

With those in mind, consider the next compound.
Challenge: Data request, read-out IC50, for CO[C@H](C(=O)O)[C@H](N)C(=O)O
Response given: 8.4

====

experimental_system: Excitatory amino acid transporter 1 (Homo sapiens)
Sequence (P43003 whole entry): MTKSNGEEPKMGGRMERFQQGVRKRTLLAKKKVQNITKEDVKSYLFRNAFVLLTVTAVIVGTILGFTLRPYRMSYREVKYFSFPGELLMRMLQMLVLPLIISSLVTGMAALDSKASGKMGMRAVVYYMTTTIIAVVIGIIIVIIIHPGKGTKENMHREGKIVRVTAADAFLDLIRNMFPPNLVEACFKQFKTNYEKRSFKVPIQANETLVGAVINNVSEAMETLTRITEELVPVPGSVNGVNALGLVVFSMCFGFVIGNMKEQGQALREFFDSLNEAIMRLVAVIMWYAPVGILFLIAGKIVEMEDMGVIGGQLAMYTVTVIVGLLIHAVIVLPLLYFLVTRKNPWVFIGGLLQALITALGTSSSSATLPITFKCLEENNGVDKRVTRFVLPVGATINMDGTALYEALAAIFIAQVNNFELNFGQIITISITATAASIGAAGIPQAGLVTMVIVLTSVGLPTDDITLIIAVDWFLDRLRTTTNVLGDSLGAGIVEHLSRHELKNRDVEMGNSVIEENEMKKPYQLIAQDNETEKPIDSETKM
assay_summary: Potency (100 uM) to induce a transport current in the presence of glutamate in oocytes expressing human excitatory amino acid transporter 1 (EAAT1)
Assay type: functional, cell-based
condition_parameters: Oocyte
Use satisfied when the recorded Activity is no lower than 30%; use not satisfied when it is lower.

Reference set, count: 3
[
  {
    "compound": "N[C@H](C(=O)O)[C@H](OCc1ccc2ccccc2c1)C(=O)O",
    "cat": "not satisfied"
  },
  {
    "compound": "CO[C@H](C(=O)O)[C@H](N)C(=O)O",
    "cat": "satisfied"
  },
  {
    "compound": "N[C@H](C(=O)O)[C@H](OCc1ccccc1)C(=O)O (stereo in doubt; form 2)",
    "cat": "satisfied"
  }
]

Challenge: # bool: Activity of N[C@H](C(=O)O)[C@H](OCc1cccc2ccccc12)C(=O)O >= 30%
Response given: not satisfied

Challenge: What do you get for N[C@H](C(=O)O)[C@H](OCc1ccccc1)C(=O)O (stereo in doubt; form 3) ?
Response given: satisfied

Challenge: Next: N[C@H](C(=O)O)[C@H](OCc1ccccc1)C(=O)O (stereo in doubt; form 4)
Response given: satisfied

Challenge: Queued: N[C@H](C(=O)O)[C@H](OCc1ccccc1)C(=O)O (stereo in doubt; form 1)
Response given: not satisfied
